Target: Metabotropic glutamate receptor 8 (Rattus norvegicus)
Test: mGluR8 Gi/Go-coupled signaling modulation – cell-based, rat, thallium flux, HTS, primary screen (AID 488969)
Settings: HEK293 rat mGluR8, GIRK (G protein-gated inwardly rectifying potassium channel) thallium flux, FluoZin2; at 10 µM; stronger effect = higher value
The full ranking holds about 110,000 compounds; the median of “z-score” is about -0.1, and the highest 2% start at about 2. The entries come from a sample that favours the highest values as a whole.
Measured z-score by item
// response body must contain only the number

Cc1[nH]c2c(Cl)cccc2c1CCN ... 0.371
C[N+]1=C(/C=C/Nc2ccccc2)C(C)(C)c2ccccc21 ... -1.45
COc1ccc(C2NCc3ccc4c(c3-n3cccc32)OCO4)cc1O (configuration not stated) ... 2.45
O=C1C2CCCN2C(c2ccc(Cl)c(Cl)c2)N1c1ccccn1 (configuration not stated) ... -0.0899

Here is the next item to consider.
-- ask Entry CC(=O)Nc1ccc(OC(=O)c2ccccc2N)cc1 , system Metabotropic glutamate receptor 8 (Rattus norvegicus): what z-score was measured?
-- reply 0.06
